In this section we review reported remaining activity at 20 µM values for a set of compounds.
Molecular target: human cathepsin K (Homo sapiens)
Construct: purchased Enzo Life Sciences, Lörrach, Germany
Sequence (P43235 115-329): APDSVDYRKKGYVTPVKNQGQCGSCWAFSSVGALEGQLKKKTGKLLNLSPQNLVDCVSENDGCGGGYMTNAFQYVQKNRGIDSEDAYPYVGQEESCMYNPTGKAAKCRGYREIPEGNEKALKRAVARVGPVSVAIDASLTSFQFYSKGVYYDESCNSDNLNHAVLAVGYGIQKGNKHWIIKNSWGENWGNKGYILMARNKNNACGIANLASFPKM
Test: Cathepsin K inhibition assay (Cbz-Leu-Arg-AMC)
Format: biochemical
Conditions: 20 µM inhibitor, 60 min; read-out: Residual activity @ 20 µM (%) Cat K
measure: remaining activity at 20 µM (%)

# compound, measure, limit.sign, quantitative.result
rows = [
    ("CC(C)C[C@H](NC(=O)Nc1ccc(Cl)cc1)C(=O)N[C@@H](Cc1ccccc1)C(=O)O [Compound 18]", "remaining activity at 20 µM", "=", 87),
    ("CC(C)C[C@H](NC(=O)Oc1ccc(Cl)cc1)C(=O)N[C@@H](Cc1ccccc1)C(=O)OC(C)(C)C [Compound 2]", "remaining activity at 20 µM", "=", 93),
    ("CC(C)CC(NC(=O)Oc1ccc(Cl)c(NC(=O)C(c2ccccc2)c2ccccc2)c1)C(=O)N1CCCC1C(=O)O (stereo not shown) [Compound 22]", "remaining activity at 20 µM", "=", 87),
    ("COC(=O)C(Cc1ccccc1)NC(=O)C(CC(C)C)NC(=O)Oc1ccc(Cl)cc1 (stereo not shown) [Compound 3]", "remaining activity at 20 µM", "≥", 98),
    ("CC(C)C[C@H](NC(=O)Oc1ccc(NC(=O)Cc2ccccc2)c(Cl)c1)C(=O)N1CCC[C@H]1C(=O)O [Compound 24]", "remaining activity at 20 µM", "=", 95),
    ("CC(C)C[C@H](NC(=O)Oc1ccc(-c2ccccc2)c(NC(=O)Cc2ccccc2)c1)C(=O)N1CCC[C@H]1C(=O)O [Compound 21]", "remaining activity at 20 µM", "=", 73),
    ("CC(C)CC(OC(=O)Nc1ccc(Cl)cc1)C(=O)N1CCC[C@H]1C(=O)O (stereo partly shown) [Compound 17]", "remaining activity at 20 µM", "=", 95),
]
